biological target: T. vaginalis nucleoside transporters, Adenosine (LA); assay: Low affinity adenosine transport; details: read-out: Ki,app; inhibition of 20 µM [3H]-adenosine transport; average and SEM
recorded.endpoint: pKi
Answers are plain numbers, as −log10 of the molar value.

Example entries begin here.
compound	pKi
Nc1ccn([C@@H]2O[C@H](CO)[C@@H](O)[C@H]2O)c(=O)n1 [cytidine]	3.94
O=c1ccn([C@@H]2O[C@H](CO)[C@@H](O)[C@H]2O)c(=O)[nH]1 [uridine]	3.42

Now for a further compound.
Which measured pKi value corresponds to Cc1cn([C@H]2C[C@H](O)[C@@H](CO)O2)c(=O)[nH]c1=O [thymidine] ?
3.25

====

system: T. vaginalis adenine transporter; experiment: [3H]-adenine transport in T. vaginalis trophozoites; format: cell-based, Trichomonas vaginalis
Provide the recorded pEC50 for the entries that follow.
Give bare numbers, as −log10 of the molar value.

compound	measured
Nc1ncnc2nc[nH]c12 [adenine]	6.46

Now for a further compound.
Which measured pEC50 value corresponds to Nc1ncnc2c1ncn2[C@@H]1O[C@H](CO)[C@@H](O)[C@H]1O [adenosine] ?
4.07

====

target: T. vaginalis nucleoside transporters, Uridine (HA); assay: [3H]-uridine transport in T. vaginalis trophozoites; format: cell-based, Trichomonas vaginalis; settings: read-out: Ki,app, low affinity component
recorded.endpoint: pKi
Numbers only, as −log10 of the molar value.

Which measured pKi value corresponds to O=c1[nH]cnc2c1ncn2[C@@H]1O[C@H](CO)[C@@H](O)[C@H]1O ?
3.64

====

molecular target: low affinity pyrimidine nucleobase transporter of T. vaginalis; test: [3H]-uracil transport in T. vaginalis trophozoites; format: cell-based, Trichomonas vaginalis; settings: read-out: Ki,app
recorded.endpoint: Ki (µM)
Answers are plain numbers, in µM.

What Ki appears in the records for this compound with low affinity pyrimidine nucleobase transporter of T. vaginalis? O=c1[nH]cc(F)c(=O)[nH]1 [5F-uracil]
265

====

target: T. vaginalis nucleoside transporters, Adenosine (HA); assay: High affinity [3H]-adenosine transport in T. vaginalis trophozoites; format: cell-based, Trichomonas vaginalis; details: read-out: Ki,app, low affinity component
recorded.endpoint: Ki (µM)
One number for each entry, in µM.

Which measured Ki value corresponds to O=c1[nH]cnc2c1ncn2[C@@H]1O[C@H](CO)[C@@H](O)[C@H]1O ?
347

====

target: T. vaginalis nucleoside transporters, Adenosine (HA); assay: High affinity [3H]-adenosine transport in T. vaginalis trophozoites; assay type: cell-based, Trichomonas vaginalis; conditions: read-out: Ki,app; inhibition of […] [3H]-adenosine transport
pKi: −log10 of the molar value.
recorded.endpoint: pKi

Which measured pKi value corresponds to Nc1ncnc2nc[nH]c12 [adenine] ?
< 3.00

====

target: low affinity pyrimidine nucleobase transporter of T. vaginalis; experiment: [3H]-uracil transport in T. vaginalis trophozoites; type: cell-based, Trichomonas vaginalis; conditions: read-out: Ki,app; inhibition of 0.5 µM [3H]-uracil uptake
recorded.endpoint: pKi
Answers are plain numbers, as −log10 of the molar value.

chemical.structure	pKi
Cc1c[nH]c(=O)[nH]c1=O	4.24

Now for a further compound.
What pKi appears in the records for this compound with low affinity pyrimidine nucleobase transporter of T. vaginalis? Nc1cc[nH]c(=O)n1
3.48

====

target: T. vaginalis nucleoside transporters, Inosine (LA); test: Low affinity [3H]-inosine transport in T. vaginalis trophozoites; format: cell-based, Trichomonas vaginalis; details: read-out: Ki,app; inhibition of 1 µM [3H]-inosine uptake; average and SEM; listed as Guanosine
recorded.endpoint: Ki (µM)
One number for each entry, in µM.

Which measured Ki value corresponds to Nc1nc2c(ncn2[C@@H]2O[C@H](CO)[C@@H](O)[C@H]2O)c(=O)[nH]1 [guanosine] ?
7.4

====

Provide the recorded Ki for the entries that follow.
target: UniProtKB A2EMT5
One number for each entry, in µM.

chemical.structure	quantity.unit	Ki
O=c1[nH]cnc2c1ncn2[C@@H]1O[C@H](CO)[C@@H](O)[C@H]1O	µM	40

Which measured Ki value corresponds to Nc1ncnc2c1ncn2[C@@H]1O[C@H](CO)[C@@H](O)[C@H]1O ?
47.2

====

Provide the recorded Hill slope for the entries that follow.
target: TvagENT3 (Trichomonas vaginalis, UniProt A2E5Q3); test: [3H]-cytidine uptake by T. brucei TbAT1-KO cells expressing TvagENT3; settings: single experiment, Fig. 10D-F
One number for each entry.

Example entries begin here.
chemical.structure	Hill slope
Nc1ncnc2c1ncn2[C@@H]1O[C@H](CO)[C@@H](O)[C@H]1O	−1.1
Cc1cn([C@H]2C[C@H](O)[C@@H](CO)O2)c(=O)[nH]c1=O	−1.1
O=c1[nH]cnc2c1ncn2[C@@H]1O[C@H](CO)[C@@H](O)[C@H]1O	−1.07
O=c1ccn([C@@H]2O[C@H](CO)[C@@H](O)[C@H]2O)c(=O)[nH]1	−0.93

Now for a further molecule.
Which measured Hill slope value corresponds to Nc1ccn([C@@H]2O[C@H](CO)[C@@H](O)[C@H]2O)c(=O)n1 ?
−0.99

====

target: T. vaginalis nucleoside transporters, Inosine (LA); experiment: Low affinity [3H]-inosine transport in T. vaginalis trophozoites; assay type: cell-based, Trichomonas vaginalis; conditions: read-out: Ki,app; inhibition of 1 µM [3H]-inosine uptake; average and SEM; listed as Adenosine
recorded.endpoint: Ki (µM)
One number for each entry, in µM.

Which measured Ki value corresponds to Nc1ncnc2c1ncn2[C@@H]1O[C@H](CO)[C@@H](O)[C@H]1O [adenosine] ?
6.4

====

target: TvagENT3 (Trichomonas vaginalis); test: [3H]-cytidine uptake by T. brucei TbAT1-KO cells expressing TvagENT3
recorded.endpoint: Hill slope
Give bare numbers.

Example entries begin here.
chemical.structure	Hill slope
Nc1nc2c(ncn2[C@@H]2O[C@H](CO)[C@@H](O)[C@H]2O)c(=O)[nH]1	−1.33
Nc1ncnc2c1ncn2[C@@H]1O[C@H](CO)[C@@H](O)[C@H]1O	−1.04
Cc1cn([C@H]2C[C@H](O)[C@@H](CO)O2)c(=O)[nH]c1=O	−1.17

Which measured Hill slope value corresponds to O=c1[nH]cnc2c1ncn2[C@@H]1O[C@H](CO)[C@@H](O)[C@H]1O ?
−1.08

====

target: T. vaginalis adenine transporter; experiment: [3H]-adenine transport in T. vaginalis trophozoites; details: read-out: Ki,app; inhibition of 50 nM [3H]-adenine transport
recorded.endpoint: Ki (µM)
Numbers only, in µM.

What Ki appears in the records for this compound with T. vaginalis adenine transporter? Nc1ncnc2c1ncn2[C@@H]1O[C@H](CO)[C@@H](O)[C@H]1O
155

====

target: T. vaginalis nucleoside transporters, Adenosine (HA); test: High affinity [3H]-adenosine transport in T. vaginalis trophozoites; type: cell-based, Trichomonas vaginalis; details: read-out: Ki,app; inhibition of […] [3H]-adenosine transport, 30 s; monophasic; average and SEM
Provide the recorded Ki for the entries that follow.

chemical.structure	Ki
Cc1cn([C@H]2C[C@H](O)[C@@H](CO)O2)c(=O)[nH]c1=O	274 µM
O=c1[nH]cnc2nc[nH]c12	185 µM
Nc1ncnc2nc[nH]c12	~1000 µM
Nc1ccn([C@@H]2O[C@H](CO)[C@@H](O)[C@H]2O)c(=O)n1	17.9 µM
O=c1ccn([C@@H]2O[C@H](CO)[C@@H](O)[C@H]2O)c(=O)[nH]1	3.7 µM

Which measured Ki value corresponds to Nc1nc2c(ncn2[C@@H]2O[C@H](CO)[C@@H](O)[C@H]2O)c(=O)[nH]1 ?
12.2 µM

====

Provide the recorded pKi for the entries that follow.
target: T. vaginalis nucleoside transporters, Guanosine (HA); test: [3H]-guanosine transport in T. vaginalis trophozoites; settings: read-out: Ki,app; inhibition of [3H]-guanosine transport; monophasic sigmoid curve; average and SEM
Numbers only, as −log10 of the molar value.

Example entries begin here.
chemical.structure	pKi
O=c1ccn([C@@H]2O[C@H](CO)[C@@H](O)[C@H]2O)c(=O)[nH]1	5.11
Cc1cn([C@H]2C[C@H](O)[C@@H](CO)O2)c(=O)[nH]c1=O	3.69
Nc1ncnc2c1ncn2[C@@H]1O[C@H](CO)[C@@H](O)[C@H]1O	5.39

Now for a further compound.
Which measured pKi value corresponds to Nc1ccn([C@@H]2O[C@H](CO)[C@@H](O)[C@H]2O)c(=O)n1 ?
4.73

====

tested on: T. vaginalis adenine transporter; assay: [3H]-adenine transport in T. vaginalis trophozoites; assay type: cell-based, Trichomonas vaginalis; conditions: read-out: EC50, lower affinity component; two transporter model, Fig. 6F; large degree of uncertainty
recorded.endpoint: EC50 (µM)
Numbers only, in µM.

Which measured EC50 value corresponds to Nc1ncnc2nc[nH]c12 [adenine] ?
17

====

molecular target: T. vaginalis nucleoside transporters, Inosine (LA); experiment: Low affinity [3H]-inosine transport in T. vaginalis trophozoites; assay type: cell-based, Trichomonas vaginalis; conditions: read-out: Ki,app; inhibition of 1 µM [3H]-inosine uptake; average and SEM
recorded.endpoint: Ki (µM)
Give bare numbers, in µM.

Example entries begin here.
compound	system	Ki (µM)
O=c1ccn([C@@H]2O[C@H](CO)[C@@H](O)[C@H]2O)c(=O)[nH]1 [uridine]	T. vaginalis nucleoside transporters, Inosine (LA)	3.6
Nc1nc2c(ncn2[C@@H]2O[C@H](CO)[C@@H](O)[C@H]2O)c(=O)[nH]1 [guanosine]	T. vaginalis nucleoside transporters, Inosine (LA)	7.41

Now for a further compound.
What Ki appears in the records for this compound with T. vaginalis nucleoside transporters, Inosine (LA)? Nc1ncnc2c1ncn2[C@@H]1O[C@H](CO)[C@@H](O)[C@H]1O [adenosine]
6.36

Origin of the recorded values: paper PMC8688338
